All figures here come from PubChem BioAssay (Tox21).

molecular target: Estrogen receptor (Homo sapiens) (UniProt P03372); assay: qHTS assay to identify small molecule agonists of the estrogen receptor alpha (ER-alpha) signaling pathway in the presence of an antagonist (AID 1259383); details: VM7Luc4E2 cells, ERE-luciferase, +ICI-182,780, 22 h; series mostly up to 92.4 µM; further: top concentration of the series differs between compounds; nearly all actives have a fitted effect of over 15% in size
Sequence (P03372 whole entry, looked up): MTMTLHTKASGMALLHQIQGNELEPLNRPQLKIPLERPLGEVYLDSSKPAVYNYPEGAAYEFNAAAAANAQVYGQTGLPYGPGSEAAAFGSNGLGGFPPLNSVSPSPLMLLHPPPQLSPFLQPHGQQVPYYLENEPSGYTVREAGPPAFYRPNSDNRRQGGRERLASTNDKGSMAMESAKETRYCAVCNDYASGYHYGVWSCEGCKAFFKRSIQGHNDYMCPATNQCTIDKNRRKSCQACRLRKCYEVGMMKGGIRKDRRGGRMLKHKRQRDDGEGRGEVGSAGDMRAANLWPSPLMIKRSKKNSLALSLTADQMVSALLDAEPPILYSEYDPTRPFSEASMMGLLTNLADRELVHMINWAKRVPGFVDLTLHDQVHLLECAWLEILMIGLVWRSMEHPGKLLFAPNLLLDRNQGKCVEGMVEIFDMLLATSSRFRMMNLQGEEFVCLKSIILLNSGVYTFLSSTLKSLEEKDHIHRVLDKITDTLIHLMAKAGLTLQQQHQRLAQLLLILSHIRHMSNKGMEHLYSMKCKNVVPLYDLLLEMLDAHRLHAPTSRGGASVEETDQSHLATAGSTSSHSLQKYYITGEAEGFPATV
Calls of active or inactive are those of the source. The call rests on the fitted dose curve.
endpoint-name: activation

In [3]: df
Out[3]:
                                   compound  observed_value
0                         ClP(Cl)(Cl)(Cl)Cl        inactive
1  CC1Sc2c(C(=O)O)c(=O)c3cc(F)c(N4CCNCC4)cc3n21 (stereo unspecified)        inactive
2                       CCOP(=O)(OCC)SCCSCC        inactive
3                    Clc1cc(Cl)c(Cl)c(Cl)c1        inactive
4  O=C(NC(=O)c1c(F)cccc1F)Nc1cc(Cl)c(Oc2ncc(C(F)(F)F)cc2Cl)c(Cl)c1        inactive
5                          O=C(CBr)c1ccccc1        inactive

INPUT: Which activation is reported with Estrogen receptor (Homo sapiens) (UniProt P03372) for this entry: O=C(OC1CCCCC1)c1ccccc1C(=O)OC1CCCCC1 ?
OUTPUT: inactive

INPUT: Missing value: activation, Estrogen receptor (Homo sapiens) (UniProt P03372), entry CCBr . Fill in?
OUTPUT: inactive

INPUT: Which activation is reported with Estrogen receptor (Homo sapiens) (UniProt P03372) for this entry: N#C/C(N)=C(/N)C#N ?
OUTPUT: inactive

* * *

test: qHTS assay to identify small molecule agonists of the estrogen receptor alpha (ER-alpha) signaling pathway in the presence of an antagonist - cell viability counter screen (AID 1259386); conditions: VM7Luc4E2 viability, CellTiter-Fluor fluorescence, 22 h; series mostly up to 92.4 µM;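 further: cells exposed to compounds for 22 h at 37 °C before the viability read; nearly all actives have a fitted effect of over 30% in size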
Inconclusive results are not listed. Calls of active or inactive are those of the source. The call rests on the fitted dose curve; in most records, active means well fitted cell-killing curve with a large enough effect in the repeat runs; inconclusive means weak or mixed curves, or effect the other way; inactive means no such curve, though single readings can be large or run the other way.
I would appreciate it if you answered using one of these outcomes: active, inactive

       compound  class_name
0  O=NN1CCCCCC1    inactive

INPUT: I would be grateful if you could indicate the recorded call for CCCCC(CC)COP(=O)(Oc1ccccc1)Oc1ccccc1 (centres undefined) .
OUTPUT: inactive

INPUT: How was CC[C@H]1C[C@H]2[C@@H]3CCC4=CC(=O)CC[C@@H]4[C@H]3CC[C@]2(C)[C@H]1O classified in this test?
OUTPUT: inactive

INPUT: Fill in: this test's call for Cl/C=C\Cl is ___
OUTPUT: inactive

INPUT: Which outcome was entered for the compound ClCCCCBr in this test?
OUTPUT: inactive

INPUT: Tell me the assay call for CC(Cl)C(C)Cl (centres undefined) please.
OUTPUT: inactive

INPUT: Returns: the outcome recorded for CCOP(=S)(OCC)Oc1nc(Cl)c(Cl)cc1Cl in this assay.
OUTPUT: inactive

INPUT: Answer briefly: the call reported for CCC(C)(NC(=O)c1cc(Cl)c(C)c(Cl)c1)C(=O)CCl (centres undefined) in this assay.
OUTPUT: inactive

INPUT: Could you check what this test reported for CCc1ccc(C(=O)NN(C(=O)c2cc(C)cc(C)c2)C(C)(C)C)cc1 ?
OUTPUT: active

INPUT: For CCCCc1c(C)nc(NCC)nc1OS(=O)(=O)N(C)C , what call appears in the results of this test?
OUTPUT: active

INPUT: For O=C(O)C(F)(F)C(F)(F)C(F)(F)C(F)(F)C(F)(F)C(F)(F)C(F)(F)C(F)(F)C(F)(F)C(F)(F)F , what call appears in the results of this test?
OUTPUT: inactive

INPUT: What was the test verdict on C=C(C#N)CCC#N ?
OUTPUT: inactive

INPUT: Which outcome was assigned to CCOC(=O)CBr in this test?
OUTPUT: inactive

INPUT: Given CCCN(CCCl)c1c([N+](=O)[O-])cc(C(F)(F)F)cc1[N+](=O)[O-] , state the outcome it received in this test.
OUTPUT: inactive

INPUT: Any idea what this test logged for C[N+](C)(C)CCCl ?
OUTPUT: inactive

INPUT: I would be grateful if you could indicate the recorded call for CCCCN(N=O)C(=N)N[N+](=O)[O-] .
OUTPUT: inactive

INPUT: Status in this test for O=S(=O)(Cl)c1ccccc1 ?
OUTPUT: inactive

INPUT: Hey, what did the test say about CCn1cc[n+](C)c1 ?
OUTPUT: inactive

INPUT: Entry O=S1OC[C@@H]2[C@H](CO1)[C@]1(Cl)C(Cl)=C(Cl)[C@@]2(Cl)C1(Cl)Cl (some centres undefined) : call = ?
OUTPUT: inactive

INPUT: // param item: COC(=O)C(C)N(C(=O)Cc1ccccc1)c1c(C)cccc1C (centres undefined) ; yields the recorded call
OUTPUT: inactive

INPUT: Each compound tested received a call. Report the one for CCOC(=O)C(Cl)C(C)=O (centres undefined) .
OUTPUT: inactive

INPUT: Per the assay record, what outcome was assigned to CC(=O)NC1CCSC1=O (centres undefined) ?
OUTPUT: inactive

INPUT: Per the assay record, what outcome was assigned to CCC(COC(=O)c1cc(OC)c(OC)c(OC)c1)(c1ccccc1)N(C)C (centres undefined) ?
OUTPUT: inactive

INPUT: State the result this test recorded for Clc1cc(Cl)c(Cl)c(Cl)c1 .
OUTPUT: inactive

INPUT: How was COc1nn(CSP(=S)(OC)OC)c(=O)s1 classified in this test?
OUTPUT: inactive

INPUT: What outcome does the record of this test show for NC(=O)CI ?
OUTPUT: inactive

INPUT: What did this assay record as the result for C=CC(=O)OC(C)(C)C ?
OUTPUT: inactive

INPUT: How did this test come out for CN1[C@@H]2CC[C@H]1CC(OC(=O)c1cc(Cl)cc(Cl)c1)C2 (some centres undefined) ?
OUTPUT: inactive

INPUT: Assay outcome for NNC(=O)c1cccnc1 : what was it?
OUTPUT: inactive
